Each recorded value in this set is attributed to paper PMC6405930.

- System Tested: C-36 fibrils (Homo sapiens)
- Construct: the 36 residue C-terminal fragment of α1-antitrypsin (C-36)
- Sequence (P01009 383-418 limits assumed): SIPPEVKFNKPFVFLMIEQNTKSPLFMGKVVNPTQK
- Assay Comment: Fibril titration with ThT (fluorescence)
- Experimental Parameters: 7.5 μg fibril material, single-site binding model; read-out: dissociation constant (kd)
Recorded Metric: Kd (nM)

1) Cc1ccc2c(c1)sc(-c1ccc(N(C)C)cc1)[n+]2C = 630
